- TGT: Tryptophan 2,3-dioxygenase (Homo sapiens)
- PROTOCOL_NOTES: Inhibition of human TDO expressed in human T-REx cells using L-tryptophan as substrate after 20 hrs
- Format: cell-based
- Sequence (P48775 whole entry): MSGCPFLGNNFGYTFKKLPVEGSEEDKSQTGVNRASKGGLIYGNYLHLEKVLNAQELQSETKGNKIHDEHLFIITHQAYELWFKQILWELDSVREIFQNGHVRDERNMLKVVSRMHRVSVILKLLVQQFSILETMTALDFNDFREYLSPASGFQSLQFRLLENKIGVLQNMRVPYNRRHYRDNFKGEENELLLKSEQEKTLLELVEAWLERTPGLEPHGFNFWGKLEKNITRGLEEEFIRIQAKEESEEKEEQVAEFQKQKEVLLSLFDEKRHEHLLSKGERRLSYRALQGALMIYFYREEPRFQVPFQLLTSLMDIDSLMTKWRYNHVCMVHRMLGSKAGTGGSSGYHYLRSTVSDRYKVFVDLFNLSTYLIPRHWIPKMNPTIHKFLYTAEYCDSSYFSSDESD
Criterion: IC50 strictly under 6 µM. Met: true (1). Not met: false (0).

Look over these answered cases.
COMPOUND: NOC(c1ccccc1)c1cccc(C(F)(F)F)c1F (stereo not drawn)
CLASS: true (1)

COMPOUND: NOC(c1ccc(F)cc1)c1ccc(F)cc1
CLASS: true (1)

COMPOUND: NS(=O)(=O)NCCNc1nonc1C(=NO)Nc1ccc(F)c(Br)c1
CLASS: false (0)

COMPOUND: COc1ccccc1C(ON)c1ccccc1 (stereo not drawn)
CLASS: false (0)

COMPOUND: NOC(c1ccccc1)c1cccc(Br)c1 (stereo not drawn)
CLASS: false (0)

Threshold test, IC50 < 6 µM: NOC(c1ccccc1)c1ccc(O)cc1 (stereo not drawn)
false (0)

Try this compound next: NOC(c1ccccc1)c1cccc(C(F)(F)F)c1 (stereo not drawn)
false (0)

Try this compound next: NOC(c1ccccc1)c1cc(C(F)(F)F)ccc1F (stereo not drawn)
false (0)

Try this compound next: NOC(c1ccccc1)c1cccc(F)c1 (stereo not drawn)
false (0)

Try this compound next: NOC(c1ccccc1)c1ccccc1F (stereo not drawn)
true (1)

---

Reported inhibition values for the following compounds.
- TGT: UniProt:P48775
- PROTOCOL_NOTES: Inhibition of TDO (unknown origin) at 100 uM using L-tryptophan as substrate by spectrophotometric method relative to control
- Sequence (P48775 whole entry, looked up): as the sequence (P48775 whole entry) above
Give the value in % but do not write % after it.

Example entries begin here.
COMPOUND: NOC(CCc1cccc(Cl)c1)c1ccccc1 (configuration not stated)
inhibition (%): 93.1

COMPOUND: NOC(c1ccccc1)c1cc(Cl)cc(Cl)c1 (configuration not stated)
inhibition (%): 83.4

COMPOUND: NOC(c1ccccc1)c1cc(F)cc(F)c1 (configuration not stated)
inhibition (%): 92.6

COMPOUND: NOC(c1ccccc1)c1cccc(Br)c1 (configuration not stated)
inhibition (%): 92.6

COMPOUND: NOC(c1ccccc1)C1CCCCC1 (configuration not stated)
inhibition (%): 43.6

Fill in the blank: the reported inhibition of NOC(CCCC(=O)Nc1ccccc1)c1cccc(Cl)c1 (configuration not stated) is ____.
75.5

---

- TGT: UniProt:Q6ZQW0
- Sequence (Q6ZQW0 whole entry): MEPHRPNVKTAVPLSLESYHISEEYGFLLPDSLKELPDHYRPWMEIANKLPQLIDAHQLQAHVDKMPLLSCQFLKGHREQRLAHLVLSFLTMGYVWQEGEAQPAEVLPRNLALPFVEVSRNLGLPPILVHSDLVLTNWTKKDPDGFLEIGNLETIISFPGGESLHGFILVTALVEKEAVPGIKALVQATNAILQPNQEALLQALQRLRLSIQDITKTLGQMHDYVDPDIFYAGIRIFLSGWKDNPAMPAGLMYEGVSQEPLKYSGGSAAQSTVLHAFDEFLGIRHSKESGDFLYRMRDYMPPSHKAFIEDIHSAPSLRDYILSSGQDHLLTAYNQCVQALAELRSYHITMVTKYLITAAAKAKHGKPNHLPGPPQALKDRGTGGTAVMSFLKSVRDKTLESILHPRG
- PROTOCOL_NOTES: Inhibition of IDO2 (unknown origin) at 100 uM using L-tryptophan as substrate by spectrophotometric method relative to control
ASSAY_ENDPOINT: inhibition (%)
Give the value in % but do not write % after it.

Example entries begin here.
MOLECULE: NOC(c1ccccc1)c1cc(F)cc(F)c1 (configuration not stated)
UNIT_SPEC: %
inhibition: 83
//
MOLECULE: NOC(c1ccc(Cl)cc1)c1ccc(Cl)cc1
UNIT_SPEC: %
inhibition: 69.3
//
MOLECULE: NOC(c1ccccc1)C1CCCCC1 (configuration not stated)
UNIT_SPEC: %
inhibition: 88.6
//
MOLECULE: NOC(c1ccccc1)c1cc(C(F)(F)F)ccc1F (configuration not stated)
UNIT_SPEC: %
inhibition: 73.8
//
MOLECULE: NOC(c1ccccc1)c1ccc(Cl)cc1 (configuration not stated)
UNIT_SPEC: %
inhibition: 74.3

Fill in the blank: the reported inhibition of NOC(c1ccccc1)c1ccc(Cl)cc1Cl (configuration not stated) is ____.
73

Try this molecule next: NOC(c1ccccc1)c1cccc(F)c1 (configuration not stated)
82
